Experiment: Conjugator-antibody conjugate maleimide hydrolysis (ring opening) kinetics by reduced LCMS
Assay type: physicochemical
Settings: pH 7, time point 24 h
Attribute: MS DAR
Please give only the number in your answer, with no unit.

Before answering, review these 3 worked examples.
compound="CC(C)N(CCC(=O)N(C)C)C(=O)OCC(CN)N1C(=O)C=CC1=O (stereo not drawn)" experimental_result=7.96
compound="CN(C)C(=O)CCNC(=O)OCC(CCN)N1C(=O)C=CC1=O (stereo not drawn)" experimental_result=8
compound="CN(C)C(=O)CCNC(=O)NCC(CN)N1C(=O)C=CC1=O (stereo not drawn)" experimental_result=8

Req: Returns the measured MS DAR for the input compound. Input: CN(C)C(=O)CN(C)C(=O)OCC(CN)N1C(=O)C=CC1=O (stereo not drawn)
Resp: 7.8

Req: Can you check CN(C)C(=O)CCOCC(N)CN1C(=O)C=CC1=O (stereo not drawn) next?
Resp: 8
